Where do these numbers come from? They come from ChEMBL document CHEMBL3286227.

- tested-system: Mitogen-activated protein kinase; ERK1/ERK2 (Homo sapiens) (UniProt P27361+P28482)
- Sequence (P27361 whole entry, looked up): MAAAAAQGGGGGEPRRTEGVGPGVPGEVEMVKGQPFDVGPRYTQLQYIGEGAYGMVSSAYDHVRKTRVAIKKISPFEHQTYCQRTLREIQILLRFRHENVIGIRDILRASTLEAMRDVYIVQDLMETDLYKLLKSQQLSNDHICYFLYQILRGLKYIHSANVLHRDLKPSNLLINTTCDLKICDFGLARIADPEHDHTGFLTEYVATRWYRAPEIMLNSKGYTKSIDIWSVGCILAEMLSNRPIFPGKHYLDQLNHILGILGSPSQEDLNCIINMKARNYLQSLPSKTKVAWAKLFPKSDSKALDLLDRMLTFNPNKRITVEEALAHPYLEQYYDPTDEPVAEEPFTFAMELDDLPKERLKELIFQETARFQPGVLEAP
- Sequence (P28482 whole entry, looked up): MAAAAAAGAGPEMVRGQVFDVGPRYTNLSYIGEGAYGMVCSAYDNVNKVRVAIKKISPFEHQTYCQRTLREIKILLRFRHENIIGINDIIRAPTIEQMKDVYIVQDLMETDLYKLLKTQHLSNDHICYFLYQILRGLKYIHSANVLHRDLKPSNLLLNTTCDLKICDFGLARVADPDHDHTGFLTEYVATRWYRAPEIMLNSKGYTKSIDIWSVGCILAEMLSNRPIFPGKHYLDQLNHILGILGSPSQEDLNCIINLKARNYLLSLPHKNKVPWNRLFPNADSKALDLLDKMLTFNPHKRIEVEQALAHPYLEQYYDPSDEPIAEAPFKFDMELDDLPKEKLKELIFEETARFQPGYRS
- experiment-description: Inhibition of ERK1/2 kinase in human A431 cells using EGF as substrate at 10 uM incubated for 5 mins prior to substrate addition measured after 10 mins by fluorescence assay relative to control
- Type: cell-based
- test-parameters: A-431
property-measured: inhibition (%)

Below are worked cases with known answers.
CC(=O)Nc1cccc(Oc2ccc(NC(=N)Nc3ccc(Cl)c(C(F)(F)F)c3)cc2)c1 :: 8
N=C(N)Nc1cccc(Cc2ccc(NC(=N)Nc3ccc(Cl)c(C(F)(F)F)c3)cc2)c1 :: 17

A = N=C(N)Nc1ccc(Oc2cccc(NC(=N)N)c2)cc1
B = N=C(N)Nc1ccc(Oc2ccc(NC(=N)N)cc2)cc1
C = N=C(N)Nc1cccc(Oc2ccc(NC(=N)Nc3ccc(Cl)c(C(F)(F)F)c3)cc2)c1
D = N=C(N)Nc1cccc(C(=O)c2ccc(NC(=N)Nc3ccc(Cl)c(C(F)(F)F)c3)cc2)c1
E = CC(=O)Nc1cccc(Nc2ccc(NC(=N)Nc3ccc(Cl)c(C(F)(F)F)c3)cc2)c1
Sort by inhibition, descending. Dear reader, please state the labels in the requested order.
D, E, B, A, C
(D: 21%, E: 12%, B: 6%, A: -4%, C: -7%)

----------
- tested-system: Glycogen synthase kinase-3 beta (Homo sapiens)
- Sequence (P49841 whole entry): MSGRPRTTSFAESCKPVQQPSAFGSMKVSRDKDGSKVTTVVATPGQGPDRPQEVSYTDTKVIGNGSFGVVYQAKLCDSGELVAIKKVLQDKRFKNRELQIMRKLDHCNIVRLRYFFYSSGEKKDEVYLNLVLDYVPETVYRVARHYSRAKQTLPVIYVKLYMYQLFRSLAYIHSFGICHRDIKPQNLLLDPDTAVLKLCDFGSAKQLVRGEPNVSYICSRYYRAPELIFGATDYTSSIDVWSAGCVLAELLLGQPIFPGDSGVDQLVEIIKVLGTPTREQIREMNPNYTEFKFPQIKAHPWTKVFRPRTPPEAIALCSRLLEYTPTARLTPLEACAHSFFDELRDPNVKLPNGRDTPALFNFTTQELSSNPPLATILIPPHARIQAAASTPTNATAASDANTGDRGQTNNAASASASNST
- experiment-description: Inhibition of human recombinant GSK-3 beta after 30 mins by luminescence assay
pIC50: −log10 of the molar value.
property-measured: pIC50

N=C(N)Nc1ccc(Cc2cccc(NC(=N)N)c2)cc1 :: < 4.00
Cl.N=C(N)Nc1ccc(Oc2cccc(NC(=N)Nc3ccc(Cl)c(C(F)(F)F)c3)c2)cc1 :: < 4.00
CC(=O)Nc1cccc(Nc2ccc(NC(=N)Nc3ccc(Cl)c(C(F)(F)F)c3)cc2)c1 :: < 4.00
N=C(N)Nc1cccc(Cc2ccc(NC(=N)Nc3ccccc3)cc2)c1 :: < 4.00

// pIC50 value for "N=C(N)Nc1ccc(Oc2cccc(NC(=N)Nc3ccccc3)c2)cc1" : < 4.00

----------
- tested-system: MAP kinase p38 (Homo sapiens) (UniProt O15264+Q15759+Q16539+P53778)
- experiment-description: Inhibition of P38 MAP kinase in human A431 cells using TNF-alpha as substrate at 10 uM incubated for 5 mins prior to substrate addition measured after 10 mins by fluorescence assay relative to control
- Format: cell-based
- test-parameters: A-431
property-measured: inhibition (%)

N=C(N)Nc1ccc(Oc2ccc(NC(=N)N)cc2)cc1 :: -1
N=C(N)Nc1cccc(Cc2ccc(NC(=N)Nc3ccc(Cl)c(C(F)(F)F)c3)cc2)c1 :: -7
CC(=O)Nc1cccc(Oc2ccc(NC(=N)Nc3ccc(Cl)c(C(F)(F)F)c3)cc2)c1 :: 0
N=C(N)Nc1cccc(C(=O)c2ccc(NC(=N)Nc3ccc(Cl)c(C(F)(F)F)c3)cc2)c1 :: 20
N=C(N)Nc1cccc(Oc2ccc(NC(=N)Nc3ccc(Cl)c(C(F)(F)F)c3)cc2)c1 :: 21
N=C(N)Nc1cccc(Oc2ccc(NC(=N)Nc3ccccc3)cc2)c1 :: 1
CC(=O)Nc1cccc(Nc2ccc(NC(=N)Nc3ccc(Cl)c(C(F)(F)F)c3)cc2)c1 :: 12
N=C(N)Nc1cccc(Nc2ccc(NC(=N)Nc3ccc(Cl)c(C(F)(F)F)c3)cc2)c1 :: 12

I = N=C(N)Nc1ccc(Nc2cccc(NC(=N)N)c2)cc1
II = N=C(N)Nc1ccc(Oc2cccc(NC(=N)N)c2)cc1
Param pair: I , II . Output: the one whose inhibition is numerically greater. Please identify the chosen entry by its label.
I
(I: 4%, II: -1%)
